- target_of_assay: 5-hydroxytryptamine receptor 1A (Homo sapiens, UniProt P08908)
- Sequence (P08908 whole entry): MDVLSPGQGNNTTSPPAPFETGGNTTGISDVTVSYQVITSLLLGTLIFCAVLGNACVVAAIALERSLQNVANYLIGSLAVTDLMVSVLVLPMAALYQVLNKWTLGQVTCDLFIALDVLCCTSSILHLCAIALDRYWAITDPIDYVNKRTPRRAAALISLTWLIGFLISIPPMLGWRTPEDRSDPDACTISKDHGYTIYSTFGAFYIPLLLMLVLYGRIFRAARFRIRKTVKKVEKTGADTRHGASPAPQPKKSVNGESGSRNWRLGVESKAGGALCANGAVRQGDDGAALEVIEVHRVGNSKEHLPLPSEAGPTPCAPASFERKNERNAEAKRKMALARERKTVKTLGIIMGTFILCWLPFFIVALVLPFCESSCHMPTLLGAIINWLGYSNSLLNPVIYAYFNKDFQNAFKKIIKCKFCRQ
Decide using IC50 alone. Strictly below 80 nM: class 1. Equal to or above 80 nM: class 0.

Clc1ccc(CN2CCN(c3nc4ccsc4n4cccc34)CC2)c(Cl)c1 class 0
c1ccc(N2CCN(c3nc4ccsc4n4cccc34)CC2)cc1 class 0
CN1CCN(c2nc3cc(C(F)(F)F)ccc3n3cccc23)CC1 class 1

Exam item: Confirm or reject: IC50 of c1ccc(CN2CCN(c3nc4sccc4n4cccc34)CC2)cc1 lies strictly below 80 nM
Marked response: class 0

Exam item: Input CN1CCN(c2nc3sccc3n3cccc23)CC1
Marked response: class 1
